Molecular target: T1, human CXCR4 (chemokine (C-X-C motif) receptor 4) (human, UniProt P61073 1-352)
T1 construct: Endogenous on human tumour cell lines (Ramos, HPB-ALL, Raji, Jurkat, MM1.S, RPMI-8226, MOLP-8, MOLT-4) or transfected into CHO-K1 cells (DiscoveRx); also called CXCR4 receptor
T1 sequence (P61073 whole entry): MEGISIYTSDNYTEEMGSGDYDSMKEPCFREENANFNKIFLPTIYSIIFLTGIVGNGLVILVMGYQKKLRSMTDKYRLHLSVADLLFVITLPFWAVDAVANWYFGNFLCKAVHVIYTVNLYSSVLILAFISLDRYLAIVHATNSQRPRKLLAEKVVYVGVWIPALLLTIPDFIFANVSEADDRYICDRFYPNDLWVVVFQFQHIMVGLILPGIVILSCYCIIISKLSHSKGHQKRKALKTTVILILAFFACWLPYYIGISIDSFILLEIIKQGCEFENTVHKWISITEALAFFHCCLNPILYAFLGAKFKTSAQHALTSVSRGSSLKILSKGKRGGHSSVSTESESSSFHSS
Assay: flow cytometry on HPB-ALL cells, Fab at 0.25 µg/ml
Listed binders paired with reported MFI

h3G10.A57 VH / h3G10 VL Fab (Fab, V domains shown, Tested as Fab; also called h3G10.A57 VH / h3G10 L) VH: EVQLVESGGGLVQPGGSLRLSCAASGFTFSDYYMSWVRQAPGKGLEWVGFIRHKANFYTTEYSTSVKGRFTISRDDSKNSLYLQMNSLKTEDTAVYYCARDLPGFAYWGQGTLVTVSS VL: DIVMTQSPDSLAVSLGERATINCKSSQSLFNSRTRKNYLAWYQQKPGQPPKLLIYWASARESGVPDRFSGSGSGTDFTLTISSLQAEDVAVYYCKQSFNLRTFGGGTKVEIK	868

Now consider a different binder.
Prompt: Look up and state reported MFI for h3G10.2.42 VH / h3G10.2.72 VL Fab (Fab, V domains shown, Tested as Fab) VH: EVQLVESGGGLVQPGGSLRLSCAASGFTFSDYYMSWVRQAPGKGLEWVGFIRHKVNFYTTEYSTSVKGRFTISRDDSKNSLYLQMNSLKTEDTAVYYCARDLPGFAYWGQGTLVTVSS VL: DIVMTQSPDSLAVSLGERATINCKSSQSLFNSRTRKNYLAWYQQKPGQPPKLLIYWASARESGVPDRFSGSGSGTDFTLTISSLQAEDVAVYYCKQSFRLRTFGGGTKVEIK
Completion: 1760

The measurements presented in this section are drawn from patent US20150037328A1.
